Test: Binding affinity at purified Hsp90 by DELFIA assay
pEC50: −log10 of the molar value.

compound	pEC50
CO[C@H]1C[C@H](C)Cc2cc(cc(O)c2O)NC(=O)/C(C)=C/CC[C@H](OC)[C@@H](OC(N)=O)/C(C)=C/[C@H](C)[C@H]1O	8.22
COC1=C2C[C@@H](C)C[C@H](OC)[C@H](O)[C@@H](C)/C=C(\C)[C@H](OC(N)=O)[C@@H](OC)/C=C\C=C(/C)C(=O)NC(=CC1=O)C2=O [GELDANAMYCIN]	7.24
COc1c2cc(cc1OC(C)=O)NC(=O)/C(C)=C/CC[C@H](OC)[C@@H](OC(N)=O)/C(C)=C/[C@H](C)[C@@H](O)[C@@H](OC)C[C@H](C)C2	7.68
COc1c(O)cc2cc1C[C@@H](C)C[C@H](OC)[C@H](O)[C@@H](C)/C=C(\C)[C@H](OC(N)=O)[C@@H](OC)CC/C=C(\C)C(=O)N2 [REBLASTATIN]	8.64
C[C@@H]1C[C@H]2O[C@@H]2/C=C\C=C\C(=O)Cc2c(Cl)c(O)cc(O)c2C(=O)O1 [RADICICOL]	9.10
CO[C@H]1C[C@H](C)Cc2cc(O)cc(c2)NC(=O)/C=C/CC[C@H](OC)[C@@H](OC(N)=O)/C(C)=C/[C@H](C)[C@H]1O	7.83
CO[C@H]1C[C@H](C)Cc2cc(O)cc(c2)NC(=O)/C(C)=C/CC[C@H](OC)[C@@H](OC(N)=O)/C(C)=C/[C@H](C)[C@H]1O	8.66
